# System: OVCAR-4 ovarian
# protocol.text: NCI tumour cell line growth inhibition, 48 h
quantity: TGI

Previously resolved entries follow.
molecule | recorded.result
CCCCn1c(=O)c(/C=C/C(=O)/C=C/c2ccc(O)c(OC)c2)cc2ccc(Cl)cc21 | 9.81 µM
COC(=O)c1ccc(/C=N/c2cc(C)nn2-c2ccccc2)cc1 | > 100 µM
COc1ccc2c3c([nH]c2c1[N+](=O)[O-])C(C)N(C(=O)/C=C/c1ccccc1)CC3 (stereo not drawn) | > 100 µM
Cc1ccc2nc(NC(=O)CSC(=S)N3CCN(Cc4ccccc4)CC3)sc2c1 | > 100 µM
S=C1SC2(CCCCCC2)NC2=C1CCCCC2 | > 100 µM

Tell me the measured TGI of COC(=O)C1=C(O)C(C(=O)OC)[C@@]2(O)[C@@H](C(=O)OC)C(c3ccc(OC(=O)/C(=C/c4ccccc4)c4ccccc4)cc3)C[C@@H]1[C@@H]2C(=O)OC (stereo partly drawn) , please.
> 100 µM

Tell me the measured TGI of CNNC1=NS(=O)(=O)c2cc(C(=O)OC)c(Cl)cc2S1 , please.
> 10 µM

Tell me the measured TGI of CO/N=C(\COc1ccc2c(=O)cc(-c3ccccc3)oc2c1)c1ccc(OC)cc1 , please.
> 100 µM

Tell me the measured TGI of CC(=O)[CH-]C(=O)c1ccccc1.CC(=O)[CH-]C(=O)c1ccccc1.CC(C)CCCC(C)[C@H]1CCC2[C@@H]3CCC4C[C@@H]([O-])CC[C@]4(C)C3CC[C@@]21C.CC(C)CCCC(C)[C@H]1CCC2[C@@H]3CCC4C[C@@H]([O-])CC[C@]4(C)C3CC[C@@]21C.Cl.[Ti+4] (stereo partly drawn) , please.
> 25 µM

----------
# Test system: NCI-H522 lung
# protocol.text: NCI tumour cell line growth inhibition, 48 h
Recorded GI50, one value per entry.

Previously resolved entries follow.
molecule | GI50
C=C(C)[C@@H]1CC[C@]2(C)[C@H](CC=C3[C@@H]4CC(C)(C)CC[C@]4(C(=O)OC)CC[C@]32C)[C@@]1(C)CC/C(N)=N/O | 1.58 µM
O=c1c2ccccc2c(C=NCCNCCO)c2oc3ccccc3n12 | 16.7 µM
CCCN(CCC)c1ccc(C=O)c(OC)c1 | 18.1 µM
COc1cc2c3c(n(CCCn4cccn4)c(=O)c2cc1OC)-c1cc2c(cc1C3=O)OCO2 | 2.07 µM

Tell me the measured GI50 of CCCCn1c(=O)c(/C=C/C(=O)/C=C/c2ccc(O)c(OC)c2)cc2ccc(Cl)cc21 , please.
1.78 µM

Tell me the measured GI50 of C=C(C)[C@@H]1CC[C@]2(c3ncc(C)o3)CC[C@]3(C)[C@H](CC[C@@H]4[C@@](C)(CCC#N)[C@H](C(=C)C)CC[C@]43C)[C@@H]12 , please.
1.9 µM

Tell me the measured GI50 of CC(=O)OC1C(O)COC(Oc2c(C)c3c4c(c2O)[C@@H](C)CC[C@@H]4[C@@H](C)C[C@H]3C=C(C)C)C1O (stereo partly drawn) , please.
30.9 µM

Tell me the measured GI50 of Cn1c(-c2c(N)n(Cc3ccc(Cl)cc3)c3nc(C#N)c(C#N)nc23)nc2ccccc21 , please.
2.83 µM

----------
# System: IGROV1 ovarian
# protocol.text: NCI tumour cell line growth inhibition, 48 h
quantity: TGI

Previously resolved entries follow.
compound | TGI
CCCCCCCCCCCCCCCC[N+](C)(C)C | 0.359 µM
COc1ccc(C(F)(F)F)cc1NC(=O)O/N=C(/Cl)C(C)C | 36.2 µM
O=C1c2ccccc2N2OC3C4CCC(C4)C3C12c1ccccc1 (stereo not given) | > 100 µM
CC(C)(C)OC(=O)N(CCCn1c2c(c3ccccc3c1=O)C(=O)c1ccccc1-2)CCN(CCCn1c2c(c3ccccc3c1=O)C(=O)c1ccccc1-2)C(=O)OC(C)(C)C | > 50 µM
O=C(CN1CCOCC1)NC1=Nc2ncccc2C(=O)NN1 | > 10 µM
COc1ccc(CNCCCN2C(=O)c3ccc4c5c(ccc(c35)C2=O)C(=O)N(CCCNCCCCNCCCN)C4=O)c(OC)c1OC | 12.5 µM

Tell me the measured TGI of O=C(Nc1ccccc1)N1CC(CN2CCN(c3ccccc3)CC2)OC1=O (stereo not given) , please.
> 100 µM

Tell me the measured TGI of Nc1nc(Cl)cc(NCCCCO)n1 , please.
> 100 µM

Tell me the measured TGI of O=C1c2ccccc2C(=O)N1C/C=N/NS(=O)(=O)c1ccc(Cl)cc1 , please.
> 100 µM

Tell me the measured TGI of Cc1ccc2nc(NC(=O)CSC(=S)N3CCN(Cc4ccccc4)CC3)sc2c1 , please.
> 100 µM

----------
Recorded TGI, one value per entry.
# Test system: HS 578T breast
# protocol.text: NCI tumour cell line growth inhibition, 48 h

molecule | assay.target | TGI
COc1ccc(-c2c(N)n(-c3cc(OC)cc(OC)c3)c(=O)c3cc([N+](=O)[O-])ccc23)cc1 | HS 578T breast | > 100 µM
CNC(=O)OC(C)CN1c2ccccc2Sc2ccccc21 (stereo not given) | HS 578T breast | > 100 µM
COc1ccc(/C=C/c2cc(=O)cc(/C=C/c3ccc(OC)c(O)c3)o2)cc1O | HS 578T breast | > 100 µM
COc1cc(C(CN)N(C)C)cc(OC)c1OC (stereo not given) | HS 578T breast | > 100 µM
CNNC1=NS(=O)(=O)c2cc(C(=O)OC)c(Cl)cc2S1 | HS 578T breast | > 10 µM
CN(C)c1ncc(-c2c[nH]c3ccccc23)nc1-c1c[nH]c2ccccc12 | HS 578T breast | 9.5 µM

Tell me the measured TGI of CC(C)Nc1n[nH]c(=O)n1C(C)C , please.
> 100 µM

Tell me the measured TGI of CC(=O)OC1C(O)COC(Oc2c(C)c3c4c(c2O)[C@@H](C)CC[C@@H]4[C@@H](C)C[C@H]3C=C(C)C)C1O (stereo not given in full) , please.
37.2 µM

Tell me the measured TGI of COc1cccc2c1C(=O)c1c(O)c3c(c(O)c1C2=O)C[C@@](O)(C(=O)COC(=O)c1cccnc1)C[C@@H]3OC1CC(N)C(O)C(C)O1 (stereo not given in full) , please.
0.984 µM

Tell me the measured TGI of COC(=O)C1=C(C(=O)OC)C2(/N=C(\Nc3ccccc3)c3ccccc3)N(c3ccc(OC)cc3)CC(c3ccccc3)N2O1 (stereo not given) , please.
> 100 µM

Tell me the measured TGI of Nc1nc(N)c2ncn(Cc3c(Cl)cccc3Cl)c2n1 , please.
> 100 µM

Tell me the measured TGI of COc1ccccc1NC(=O)N/C(N)=N/c1nc2ccccc2s1 , please.
> 100 µM

Tell me the measured TGI of c1ccc(SCCP(CCP(c2ccccc2)c2ccccc2)c2ccccc2)cc1 (stereo not given) , please.
> 100 µM

Tell me the measured TGI of COC(=O)C1=C(O)C(C(=O)OC)[C@@]2(O)[C@@H](C(=O)OC)C(c3ccc(OC(=O)/C(=C/c4ccccc4)c4ccccc4)cc3)C[C@@H]1[C@@H]2C(=O)OC (stereo not given in full) , please.
> 100 µM

Tell me the measured TGI of Cc1ccc2nc(NC(=O)CSC(=S)N3CCN(Cc4ccccc4)CC3)sc2c1 , please.
> 100 µM

----------
# Tested on: CCRF-CEM leukemia
# protocol.text: NCI tumour cell line growth inhibition, 48 h
Recorded TGI, one value per entry.
// units = µM; emit number, no label

compound | recorded.result
C=CCCC12CCCC(=O)C1Sc1ccc3ccccc3c12 (stereo not given) | 53.8

Tell me the measured TGI of COc1ccc(CNCCCN2C(=O)c3ccc4c5c(ccc(c35)C2=O)C(=O)N(CCCNCCCCNCCCN)C4=O)c(OC)c1OC , please.
17.8

Tell me the measured TGI of Fc1ccc(C(OCCN2CC3CC2CN3CCCc2ccccc2)c2ccc(F)cc2)cc1 (stereo not given) , please.
21.7

----------
Recorded log10 TGI, one value per entry.
# Test system: MDA-MB-435
# protocol.text: NCI tumour cell line growth inhibition, 48 h
For clarity, the numbers are log10 values of TGI expressed in µM.

Previously resolved entries follow.
compound | log10 TGI
COc1ccc(OC)c2c1C(=O)C(Cl)=C(Cl)C2=O | 0.77
COc1ccc(OC)c(-c2cn3nc(-c4c[nH]c5ccc(Br)cc45)sc3n2)c1 | 0.77
C/C=C1/CN2CC[C@@H]3c4ccccc4N4[C@H](C(=O)OC)[C@H]1C[C@H]2[C@]34/C=C/C1=COC[C@@H]2[C@H]1C[C@H]1c3c(c4ccccc4n3C)C[C@@H]2N1C | 0.86
CCCCCCCCOC(=O)c1cc(O)c(O)c(O)c1 | 1.22
CN(C)c1ncc(-c2c[nH]c3ccccc23)nc1-c1c[nH]c2ccccc12 | 1.08
N[C@H]1CCc2c1nc1c(c2-c2ccccc2)CC[C@@H]1N | 1.48
CC(=O)NC1C(OCc2ccccc2)OC(CO)C(O)C1OCC(=O)NC(C)C(=O)NC(CCC(=O)OCCNC(=O)c1cccc2cc3ccccc3nc12)C(N)=O (stereo unspecified) | 1.63
COC(=O)c1ccc(NCc2cc(O)c3ccccc3c2O)cc1 | 0.67
O=C1C=CC(=O)c2c(O)c(Nc3ccc(OC(F)(F)F)cc3)c(Cl)c(O)c21 | 0.34
COc1cccc2c1C(=O)c1c(O)c3c(c(O)c1C2=O)C[C@@](O)(C(=O)COC(=O)c1cccnc1)C[C@@H]3OC1CC(N)C(O)C(C)O1 (stereo partly specified) | 0.00

Tell me the measured log10 TGI of CCOC(=O)C1=C(C)N(Cc2ccc(Cl)cc2Cl)C2(O)C(OC)CC(=O)C3C(=O)N(c4ccccc4)C(=O)C132 (stereo unspecified) , please.
1.07

Tell me the measured log10 TGI of CCCCCCCCCCCCCC/C(=C/OCC[N+](C)(C)C)OC(C)=O (tested in a mixture with another compound) , please.
0.87

Tell me the measured log10 TGI of CC(C)NCCCNC1=C(Cl)C(=O)c2ccccc2C1=O , please.
0.61

Tell me the measured log10 TGI of CC1=CC(=O)c2cccc(O)c2C1=O , please.
0.52

Tell me the measured log10 TGI of O=c1c2ccccc2c(C=NCCNCCO)c2oc3ccccc3n12 , please.
1.39

Tell me the measured log10 TGI of COc1cc(/C=C\c2cc(/C=C\c3ccc(O)c(OC)c3)n(C(=O)Nc3ccc(C(F)(F)F)cc3)n2)ccc1O , please.
0.85

Tell me the measured log10 TGI of O=C(C1=CCC2(CC1)OCCO2)N(Cc1ccccc1)c1ccccc1I , please.
1.71

These data points were gathered from PubChem BioAssay (NCI).
